# Tested on: PRMT1 (protein arginine N-methyltransferase 1)
# run_description: PRMT1 binders on small-molecule microarrays, primary screen, biochemical, small-molecule microarray, 635 nm fluorescence (AID 1088)
# protocol_conditions: small-molecule microarray binding, higher = more signal
Assign composite z-score to each entry below.
Just the number.

Prompt: Which composite z-score value belongs to `C=C[C@@H](COC(C)=O)N(C(=O)OC(C)(C)C)S(=O)(=O)c1ccc(Br)cc1` ?
Completion: 0.832

Prompt: Then what about the compound `COc1ccc(CCNC(=O)[C@@H]2c3ccccc3C(=O)N(Cc3cc(C(F)(F)F)cc(C(F)(F)F)c3)[C@H]2c2ccc(CO)cc2)cc1` ?
Completion: 1.41

Prompt: Then what about the compound CN1C(=O)C2C=CC(C(O)c3cccc(O)c3)N(Nc3ccccc3)C2C1=O (configuration not stated) ?
Completion: -0.0187

Prompt: Then what about the compound `COC(=O)[C@@]1(Cc2ccc(OC)cc2)[C@H]2c3cc(C(=O)N(C)C)n(C[C@H](O)CO)c3C[C@H]2CN1C(=O)c1ccccc1` ?
Completion: 0.0724

Prompt: Then what about the compound `COCCCNC(=O)[C@]1(CCS(=O)(=O)c2ccccc2)N=C(c2ccc(OCCCO)cc2)O[C@@H]1c1ccccc1N=[N+]=[N-]` ?
Completion: 1.38

Prompt: Then what about the compound C=CCC(OC(C)=O)[C@@H]1[C@@H](N(Cc2cccc3ccccc23)C(=O)c2cccc3ccccc23)c2cc(OCCCO)ccc2N1C(=O)c1ccc(-c2ccccc2)cc1 (some centres not stated) ?
Completion: 0.159

Prompt: Then what about the compound `NC(N)=NCCCn1cc(CNC(=O)[C@@H](N)Cc2ccccc2)nn1` ?
Completion: 0.605

Prompt: Then what about the compound `CO[C@]12C=C(Br)[C@@H](C[C@@H]1c1cccc(C)c1)[C@@]1(CO1)C2=O` ?
Completion: 0.435

Prompt: Then what about the compound `NCCCCCNC(=O)[C@@H]1C[C@@H]2C(=O)NCC(=O)N2[C@@H]1c1cccc(OCCO)c1` ?
Completion: 1.44

Prompt: Then what about the compound `COC(=O)[C@@]1(Cc2ccccc2)[C@@H]2C(=CC(=O)[C@H]2CC(=O)C(=O)N(C)C)CN1C(=O)c1ccccc1` ?
Completion: 0.777

Prompt: Then what about the compound `CCOC(=O)c1ccc(NC(=O)O[C@H]2[C@H](OC(=O)Nc3ccc4c(c3)OCO4)[C@@H](OC(=O)Nc3ccc4c(c3)OCO4)[C@@H](OC)O[C@@H]2CO)cc1` ?
Completion: 1.53

Prompt: Then what about the compound `COc1ccc([Si](C)(C)[C@H]2[C@H](CCn3cc([C@H](O)c4ccccc4)nn3)O[C@@]3(C(=O)N(Cc4ccc(N5C(=O)c6cccc7cccc5c67)cc4)c4ccccc43)[C@@H]2C)cc1` ?
Completion: 0.643
